MEASURED ON: MCR-1 (Homo sapiens, UniProt Q01726)
Construct: expressed in transfected cells; host or cells: HEK 293
Sequence (Q01726 whole entry): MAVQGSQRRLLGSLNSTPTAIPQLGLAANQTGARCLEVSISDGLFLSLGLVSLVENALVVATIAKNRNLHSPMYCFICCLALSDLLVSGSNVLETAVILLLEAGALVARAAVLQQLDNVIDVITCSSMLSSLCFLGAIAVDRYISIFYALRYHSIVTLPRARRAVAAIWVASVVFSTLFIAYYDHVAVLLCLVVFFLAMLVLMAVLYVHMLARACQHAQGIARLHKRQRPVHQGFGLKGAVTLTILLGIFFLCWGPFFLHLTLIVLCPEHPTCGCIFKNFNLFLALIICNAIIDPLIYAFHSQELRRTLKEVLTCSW
ASSAY TEXT: Melanocortin receptor binding assay, competition with 125I-HP 467, HEK 293 cells expressing hMCR-1
CONDITION NOTES: 10 μM isoquinoline compound, HEK 293 cells expressing MCR-1, duplicate 1
OBSERVED PROPERTY: % Disp. of 125I-HP 467 (first of duplicate) (%)

MOLECULE	RESULT VALUE
CNC(CN)CCCCN1Cc2ccccc2C(CNC2CCCCC2)C1c1cccc(Oc2ccc(OC)cc2)c1 (stereo not drawn) [TRG 2405-214]	87.5
CNC(CN)CCCCN1Cc2ccccc2C(CNC2CCCCC2)C1c1ccc(C)cc1 (stereo not drawn) [TRG 2405-249]	82.3
CNC(CN)CN1Cc2ccccc2C(CNC2CCCCC2)C1c1ccc2cccc(O)c2n1 (stereo not drawn) [TRG 2405-172]	59.4
CNC(CN)CCCCN1Cc2ccccc2C(CNC2CCCCC2)C1c1ccc(F)c(F)c1F (stereo not drawn) [TRG 2405-186]	62.7
CNC(CN)CCCCN1Cc2ccccc2C(CNC2CCCCC2)C1c1ccc(Cl)c(Cl)c1 (stereo not drawn) [TRG 2405-206]	75
CNC(CN)CCCCN1Cc2ccccc2C(CNC2CCCCC2)C1c1ccc(F)cc1 (stereo not drawn) [TRG 2405-245]	56.6
CNC(CN)CCCCN1Cc2ccccc2C(CNC2CCCCC2)C1c1cccc([N+](=O)[O-])c1 (stereo not drawn) [TRG 2405-229]	58.6
CNC(CN)CCCCN1Cc2ccccc2C(CNC2CCCCC2)C1c1ccc(O)cc1 (stereo not drawn) [TRG 2405-246]	26.5
CNC(CN)CCCCN1Cc2ccccc2C(CNC2CCCCC2)C1c1ccc(OC)c(F)c1 (stereo not drawn) [TRG 2405-220]	67.3
CNC(CN)CCCCN1Cc2ccccc2C(CNC2CCCCC2)C1c1ccc(SC)cc1 (stereo not drawn) [TRG 2405-237]	62.2

(1) CNC(CN)CCCCN1Cc2ccccc2C(CNC2CCCCC2)C1c1ccc(OC)c(C)c1 (mixture of isomers) [TRG 2405-226]
(2) CNC(CN)CCCCN1Cc2ccccc2C(CNC2CCCCC2)C1c1ccccc1CN (stereo not drawn) [TRG 2405-195]
(3) CNC(CN)CN1Cc2ccccc2C(CNC2CCCCC2)C1c1ccc(OC)c(S(=O)(=O)O)c1 (stereo not drawn) [TRG 2405-178]
List by increasing % Disp. of 125I-HP 467 (first of duplicate). Rank the items, then write their labels in that order.
3, 2, 1
(3: 25%, 2: 44.7%, 1: 79.1%)

(1) CNC(CN)CCCCN1Cc2ccccc2C(CNC2CCCCC2)C1c1ccccc1 (stereo not drawn) [TRG 2405-181]
(2) CCCOc1ccc(C2C(CNC3CCCCC3)c3ccccc3CN2CCCCC(CN)NC)cc1 (stereo not drawn) [TRG 2405-253]
(3) CNC(CN)CCCCN1Cc2ccccc2C(CNC2CCCCC2)C1c1cnc2ccccc2c1 (stereo not drawn) [TRG 2405-232]
Arrange the 3 molecules from largest to smallest % Disp. of 125I-HP 467 (first of duplicate). Rank the items, then write their labels in that order.
2, 1, 3
(2: 93.9%, 1: 57.3%, 3: 36.1%)

(A) CNC(CN)CCCCN1Cc2ccccc2C(CNC2CCCCC2)C1c1cccc(C)c1 (stereo not drawn) [TRG 2405-227]
(B) CNC(CN)CCCCN1Cc2ccccc2C(CNC2CCCCC2)C1c1cccc(F)c1F (stereo not drawn) [TRG 2405-189]
Hi, I'm comparing two records. Which one has the lower % Disp. of 125I-HP 467 (first of duplicate), A or B ? // respond with label for picked entry
B
(B: 45%, A: 78.2%)

(1) CNC(CN)CCCCN1Cc2ccccc2C(CNC2CCCCC2)C1c1cc(OC)cc(OC)c1 (stereo not drawn) [TRG 2405-211]
(2) CNC(CN)CCCCN1Cc2ccccc2C(CNC2CCCCC2)C1c1c(F)cccc1F (stereo not drawn) [TRG 2405-191]
Hi, I'm comparing two records. Which one has the lower % Disp. of 125I-HP 467 (first of duplicate), 1 or 2 ? // respond with label for picked entry
2

(I) CNC(CN)CN1Cc2ccccc2C(CNC2CCCCC2)C1c1ccc(Br)o1 (stereo not drawn) [TRG 2405-179]
(II) CNC(CN)CCCCN1Cc2ccccc2C(CNC2CCCCC2)C1c1ccoc1 (stereo not drawn) [TRG 2405-222]
Hi, I'm comparing two records. Which one has the lower % Disp. of 125I-HP 467 (first of duplicate), I or II ? // respond with label for picked entry
II
(II: 34.3%, I: 61.1%)

(A) CNC(CN)CCCCN1Cc2ccccc2C(CNC2CCCCC2)C1c1ccc(OCCCN(C)C)cc1 (stereo not drawn) [TRG 2405-234]
(B) CNC(CN)CCCCN1Cc2ccccc2C(CNC2CCCCC2)C1c1ccc(F)c(Br)c1 (stereo not drawn) [TRG 2405-216]
Hi, I'm comparing two records. Which one has the lower % Disp. of 125I-HP 467 (first of duplicate), A or B ? // respond with label for picked entry
A
(A: 52.9%, B: 78.9%)

(P) CNC(CN)CCCCN1Cc2ccccc2C(CNC2CCCCC2)C1c1cccc2c1OCO2 (stereo not drawn) [TRG 2405-188]
(Q) CNC(CN)CCCCN1Cc2ccccc2C(CNC2CCCCC2)C1c1cccc(C)n1 (stereo not drawn) [TRG 2405-261]
Lab note: record which item had the higher % Disp. of 125I-HP 467 (first of duplicate), P or Q . // respond with label for picked entry
P
